Consider the following compounds and their measured Ki readings.
Protein target, amino acids: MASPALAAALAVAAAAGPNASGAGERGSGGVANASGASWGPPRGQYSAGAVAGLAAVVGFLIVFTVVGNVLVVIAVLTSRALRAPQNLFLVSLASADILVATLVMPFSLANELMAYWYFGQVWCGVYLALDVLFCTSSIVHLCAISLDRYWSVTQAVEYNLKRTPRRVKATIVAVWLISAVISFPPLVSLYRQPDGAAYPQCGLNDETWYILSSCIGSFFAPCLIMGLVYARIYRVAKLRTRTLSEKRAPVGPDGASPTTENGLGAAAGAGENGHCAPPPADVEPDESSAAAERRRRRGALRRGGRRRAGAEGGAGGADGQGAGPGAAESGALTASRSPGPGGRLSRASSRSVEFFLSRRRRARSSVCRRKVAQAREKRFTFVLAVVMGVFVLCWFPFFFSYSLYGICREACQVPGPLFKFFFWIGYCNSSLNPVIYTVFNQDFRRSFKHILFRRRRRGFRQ
Structures can show the parent of a compound that is named as a salt.
experimental endpoint: Ki

{"columns": ["compound", "reading"],
 "data": [
  ["Cc1cc2n(c1)Cc1cc(Cl)ccc1N=C2N1CCN(CC(C)(C)C(=O)O)CC1 [Example 1]", "> 4.02 µM"],
  ["Cc1cc2n(c1)Cc1cc(Cl)ccc1N=C2N1CCN(CC(C)(C)C(=O)O)CC1 [Example 13, dihydrochloride]", "> 5.33 µM"]
]}
